Every entry's value here was drawn from the RNAGym collection of RNA variant scans (doi:10.1038/s41586-018-0170-7).

Below, each entry is listed alongside its reported yeast fitness (ln).
B1: tRNA (parent)
chain: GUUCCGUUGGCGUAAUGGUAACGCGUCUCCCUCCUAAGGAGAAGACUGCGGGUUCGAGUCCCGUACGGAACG

Variants of: B1
testSummary: yeast fitness, log relative to wild type (ln ratio); higher = fitter; tRNA-Arg(CCU), competitive growth, 37 C, 1 M NaCl
valueType: yeast fitness (ln)

[[record]]
variantidentifier = "U2G G6U C27U A43C C66U A70U C71U"
valuetype = "yeast fitness (ln)"
measuredvalue = -0.441

[[record]]
variantidentifier = "U2C G6A C27U A69G A70U"
valuetype = "yeast fitness (ln)"
measuredvalue = -0.115

[[record]]
variantidentifier = "G6U C46U A69G A70U"
valuetype = "yeast fitness (ln)"
measuredvalue = -0.204

[[record]]
variantidentifier = "G1A U2C G6U C46U C66U A70G C71U"
valuetype = "yeast fitness (ln)"
measuredvalue = -0.0224

[[record]]
variantidentifier = "U2G G6U C27U A43C C46U C66U A69G A70G"
valuetype = "yeast fitness (ln)"
measuredvalue = -0.318

[[record]]
variantidentifier = "G1A G6A A43C A70U"
valuetype = "yeast fitness (ln)"
measuredvalue = -0.221

[[record]]
variantidentifier = "G1A G6U C27U A70G"
valuetype = "yeast fitness (ln)"
measuredvalue = -0.277

[[record]]
variantidentifier = "G6U C46U C66U A70G C71U"
valuetype = "yeast fitness (ln)"
measuredvalue = -0.138

[[record]]
variantidentifier = "U2G C27U A43C C66A A70U"
valuetype = "yeast fitness (ln)"
measuredvalue = -0.0548

[[record]]
variantidentifier = "U2C C27U A43C C66A A70U C71U"
valuetype = "yeast fitness (ln)"
measuredvalue = -0.319

[[record]]
variantidentifier = "G1A U2G G6U C27U A43C C66U A69G A70G C71U"
valuetype = "yeast fitness (ln)"
measuredvalue = -0.491

[[record]]
variantidentifier = "G6A A43C C46U C66U A69G A70G C71U"
valuetype = "yeast fitness (ln)"
measuredvalue = -0.24

[[record]]
variantidentifier = "G6U C46U C66A A70U"
valuetype = "yeast fitness (ln)"
measuredvalue = 0.00243

[[record]]
variantidentifier = "G1A G6U C27U A43C C46U A70U C71U"
valuetype = "yeast fitness (ln)"
measuredvalue = -0.318

[[record]]
variantidentifier = "U2C G6U A43C C46U A69G A70G C71U"
valuetype = "yeast fitness (ln)"
measuredvalue = -0.149

[[record]]
variantidentifier = "U2G G6U A43C C46U A69G C71U"
valuetype = "yeast fitness (ln)"
measuredvalue = -0.221

[[record]]
variantidentifier = "G1A U2G G6A C27U A43C C46U A70G"
valuetype = "yeast fitness (ln)"
measuredvalue = -0.224

[[record]]
variantidentifier = "G1A G6A C27U A43C C71U"
valuetype = "yeast fitness (ln)"
measuredvalue = -0.213

[[record]]
variantidentifier = "G1A U2G G6U C27U C66U A70U"
valuetype = "yeast fitness (ln)"
measuredvalue = -0.386

